meta.source: patent US20250186437A1

system: MOLM-13 cells; test: MOLM-13 Cell Proliferation Assay (indicator of DHODH inhibition); assay type: cell-based; conditions: Homo sapiens, 72 Hours of culture, CellTiter-Glo, no uridine
pIC50: −log10 of the molar value.
Entries get a class label from measured pIC50. See ranges: bin A = under 8, bin B = from 8 up to 9, bin C = 9 and over

COMPOUND	LABEL_VALUE
Cc1ccc([C@H]2c3[nH]c4ccc(Cl)cc4c3CCN2c2nccc(C(F)(F)F)n2)c(F)c1F	bin C

Given Cc1nc(C#N)nc(N2CCc3c([nH]c4ccc(Cl)cc34)[C@@H]2c2cnc(N3CCOCC3)nc2)n1 , name the class its pIC50 places it in. bin A

Given CN1CCN(c2ccc([C@H]3c4[nH]c5ccc(Cl)cc5c4CCN3c3ncnc(C(F)(F)F)n3)cn2)CC1 , name the class its pIC50 places it in. bin B

====

Measured pIC50 accompanies every entry in the list below.
system: MOLM-13 cells; assay: MOLM-13 Cell Proliferation Assay (indicator of DHODH inhibition); format: cell-based; settings: Homo sapiens, 72 Hours of culture, CellTiter-Glo, no uridine
# log scale: pIC50 equals minus log10 of the concentration in mol/L

Field: example entries. Status: answers known.
COMPOUND	TESTED_ON	pIC50
CSc1nc(N2CCc3c([nH]c4ccc(Cl)cc34)[C@@H]2c2cnc(N3CCN(C)CC3)nc2)nc(C(F)(F)F)n1 [Compound 474]	MOLM-13 cells	8.68
Cc1ccc2[nH]c3c(c2c1)CCN(c1nccc(C(F)(F)F)n1)C3c1ccc(C)c(F)c1F (stereo not drawn) [Compound 271]	MOLM-13 cells	8.43
Fc1ccc(C2c3[nH]c4ccc(Cl)cc4c3CCN2c2nccc(C(F)(F)F)n2)c(F)c1 (stereo not drawn) [Compound 423]	MOLM-13 cells	8.21

For reference, reported pIC50 for Cc1ccc(C2c3[nH]c4ccc(F)cc4c3CCN2c2nccc(C(F)(F)F)n2)c(F)c1F (stereo not drawn) [Compound 493] stands at 7.60

For reference, reported pIC50 for Cc1ccc(C2c3[nH]c4ccc(Cl)c([N+](=O)[O-])c4c3CCN2c2nccc(C(F)(F)F)n2)c(F)c1F (stereo not drawn) [Compound 266] stands at 8.89

For reference, reported pIC50 for Cc1nc(N2CCc3c([nH]c4ccc(Cl)cc34)C2c2ccc(N3CCOCC3)nc2)nc(C)c1F (stereo not drawn) [Compound 367] stands at 8.33

For reference, reported pIC50 for Cc1ccc(C2c3[nH]c4ccc(Cl)c(F)c4c3CCN2c2nc(C)c(F)c(C)n2)cc1 (stereo not drawn) [Compound 116] stands at 8.17

For reference, reported pIC50 for Cc1cc(N)c2[nH]c3c(c2c1)CCN(c1nccc(C(F)(F)F)n1)C3c1ccc(C)c(F)c1F (stereo not drawn) [Compound 272] stands at 8.10

For reference, reported pIC50 for NS(=O)(=O)c1ccc(C2c3[nH]c4cc(F)c(Cl)cc4c3CCN2c2nccc(C(F)(F)F)n2)cc1 (stereo not drawn) [Compound 115] stands at 8.03

For reference, reported pIC50 for Cc1nc(Cl)nc(N2CCc3c([nH]c4ccc(Cl)cc34)C2c2cnc(N3CCOCC3)nc2)n1 (stereo not drawn) [Compound 289] stands at 7.57

For reference, reported pIC50 for Cc1ncc(C2c3[nH]c4cc(F)c(Cl)cc4c3CCN2c2ncc(F)cn2)cn1 (stereo not drawn) [Compound 91] stands at 7.05

For reference, reported pIC50 for Cc1ccc(C2c3[nH]c4ccc(Cl)c(F)c4c3CCN2c2nc(C)c(F)c(C)n2)c(F)c1F (stereo not drawn) [Compound 118] stands at 9.00

====

Tested on: MOLM-13 cells
Experiment: MOLM-13 Cell Proliferation Assay (indicator of DHODH inhibition)
Format: cell-based
Details: Homo sapiens, 72 Hours of culture, CellTiter-Glo, no uridine
Description: The following assay was conducted to measure proliferation of MOLM-13 cells in the presence of each compound studied. […] On day 1, Log-phase growing Molm-13 Cells were counted and diluted to 10^5 cells/mL in RPMI 1640 medium+10% FBS • 3. […] The plates were then read by ViewLux (Speed-fast, Gain-High, Bining-1X, 5 seconds).
pIC50: −log10 of the molar value.
# cutoff 8 applies to pIC50; >= gives Yes, < gives No

COMPOUND	TESTED_ON	LABEL_VALUE
CS(=O)(=O)c1ccc(C2c3[nH]c4cc(F)c(Cl)cc4c3CCN2c2ncc(F)cn2)cc1 (stereo not drawn)	MOLM-13 cells	No
N#Cc1ccc(C2c3[nH]c4cc(F)c(Cl)cc4c3CCN2c2nc(C(F)(F)F)cc(C(F)(F)F)n2)cc1 (stereo not drawn)	MOLM-13 cells	Yes
CN(C)CCNc1ncc([C@H]2c3[nH]c4ccc(Cl)cc4c3CCN2c2nc(C(F)(F)F)nc(C(F)(F)F)n2)cn1	MOLM-13 cells	Yes
FC(F)(F)c1ccnc(N2CCc3c([nH]c4ccc(-n5cccc5)cc34)C2c2cnc(N3CCOCC3)nc2)n1 (stereo not drawn)	MOLM-13 cells	No
N#Cc1ccnc(N2CCc3c([nH]c4ccc(Cl)c(F)c34)C2c2ccc(/C=C/CCO)cc2)n1 (stereo not drawn)	MOLM-13 cells	Yes
Cc1cc(C(F)(F)F)nc(N2CCc3c([nH]c4cc(F)c(Cl)cc34)C2c2cccc(F)c2F)n1 (stereo not drawn)	MOLM-13 cells	Yes
Fc1c(Cl)ccc2[nH]c3c(c12)CCN(c1nccc(C(F)(F)F)n1)C3c1ccc(C(F)(F)F)cc1 (stereo not drawn)	MOLM-13 cells	Yes
Cc1ccc(C2c3[nH]c4cc(F)c(Cl)cc4c3CCN2c2ncc(F)c(C#N)n2)cc1 (stereo not drawn)	MOLM-13 cells	Yes

Check if pIC50 >= 8 (inclusive). Item: CNc1ncc(C2c3[nH]c4ccc(Cl)c(F)c4c3CCN2c2nccc(C(F)(F)F)n2)cn1 (stereo not drawn) Yes

Check if pIC50 >= 8 (inclusive). Item: Cc1nc(C)nc(N2CCc3c([nH]c4ccc(Cl)cc34)C2c2ccc(Cl)cc2F)n1 (stereo not drawn) Yes

Check if pIC50 >= 8 (inclusive). Item: N#Cc1ccnc(N2CCc3c([nH]c4cc(F)c(Cl)cc34)C2c2ccc(Cl)cc2)n1 (stereo not drawn) No

Check if pIC50 >= 8 (inclusive). Item: Cc1ccc([C@H]2c3[nH]c4ccc(Cl)cc4c3CCN2c2nc(N(C)C)nc(C(F)(F)F)n2)cc1 Yes

Check if pIC50 >= 8 (inclusive). Item: Cc1nc(N2CCc3c([nH]c4ccc(Cl)cc34)C2c2ccc(N3CCOCC3)nc2)nc(C(F)(F)F)n1 (stereo not drawn) Yes

====

tested on: MOLM-13 cells; assay: MOLM-13 Cell Proliferation Assay (indicator of DHODH inhibition); type: cell-based; details: Homo sapiens, 72 Hours of culture, CellTiter-Glo, no uridine
ENDPOINT: pIC50
# log scale: pIC50 equals minus log10 of the concentration in mol/L

Field: example entries. Status: answers known.
COMPOUND	ENDPOINT	RECORDED_MEASUREMENT
Cc1ccc(C2c3[nH]c4cc(F)c(Cl)cc4c3CCN2c2ncc(Cl)cn2)cc1 (stereo not shown)	pIC50	7.71
Cc1cnc(N2CCc3c([nH]c4cc(F)c(Cl)cc34)C2c2ccc(C)c(F)c2F)nc1 (stereo not shown)	pIC50	8.12
Cc1ccc(C2c3[nH]c4cc(F)c(Cl)cc4c3CCN2c2ncc(C(F)(F)F)cn2)cc1 (stereo not shown)	pIC50	7.82

Proceed to the following item.
For reference, reported pIC50 for N#Cc1cc(C(F)(F)F)nc(N2CCc3c([nH]c4ccc(Cl)cc34)[C@@H]2c2ccc(N3CCOCC3)nc2)n1 stands at 8.96

====

system: MOLM-13 cells; experiment: MOLM-13 Uridine Rescue Assay; type: cell-based; conditions: Homo sapiens; MOLM-13 cell proliferation with 100 μM Uridine added, 72 Hours of culture
ENDPOINT: pIC50
# log scale: pIC50 equals minus log10 of the concentration in mol/L

Field: example entries. Status: answers known.
COMPOUND	TESTED_ON	pIC50
Cc1nc(C)nc(N2CCc3c([nH]c4ccc(Cl)cc34)C2c2ccc(N3CCOCC3)nc2)n1 (stereo not shown)	MOLM-13 cells	5.01
FC(F)(F)c1ccnc(N2CCc3c([nH]c4ccc(-n5nccn5)cc34)C2c2ccc(N3CCOCC3)nc2)n1 (stereo not shown)	MOLM-13 cells	4.97
Cc1cc(C(F)(F)F)nc(N2CCc3c([nH]c4ccc(Cl)cc34)C2c2cnc(N3CCOCC3)nc2)n1 (stereo not shown)	MOLM-13 cells	5.05
N#Cc1cc(C#N)nc(N2CCc3c([nH]c4ccc(Cl)cc34)[C@@H]2c2cnc(N3CCOCC3)nc2)n1	MOLM-13 cells	6.14
CN1CCN(c2ncc([C@H]3c4[nH]c5ccc(Cl)cc5c4CCN3c3nc(C(F)(F)F)cc(C(F)(F)F)n3)cn2)CC1	MOLM-13 cells	5.25

For reference, reported pIC50 for Cc1cc(N)c2[nH]c3c(c2c1)CCN(c1nccc(C(F)(F)F)n1)C3c1ccc(C)c(F)c1F (stereo not shown) stands at 5.11

For reference, reported pIC50 for Nc1cc2[nH]c3c(c2cc1Cl)CCN(c1nccc(C(F)(F)F)n1)C3c1cnc(N2CCOCC2)nc1 (stereo not shown) stands at 5.07
